B1: mRNA-splicing (parent)
chain: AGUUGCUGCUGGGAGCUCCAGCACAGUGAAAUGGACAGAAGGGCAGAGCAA

# Variants of: B1
# Assay Method Text: exon inclusion enrichment index; higher = more inclusion; WT1 exon 5 minigene, HEK293
Quantity Measured: exon inclusion enrichment index

Which exon inclusion enrichment index is listed for C6A C9A U10A ?
0.333

Also, C6A U7C C9A please.
1.99

Another: G5C C6A U7C G8A U10A C22U A23C
0.0379

Follow-up item: G5A C6U U7A G8U C9A U17A C18A
0.0198

Lookup G5C C6G U7C U10C A45C
3.17

Consider next the variant G5U G8U C9U U27G G28U in the same way.
0.000678

Try the variant C6A U7C C9A U10C G48A
3.5

// same read-out, input: G5U G8U C9U G12U
0.0166

Also G5A C6U U7A G8U C9A C16G U17A ?
0.0334

Next entry: G5U G8U C9U A31U U32C
0.282

Moving on to G5U U7A C9A U10A
0.286

For G5A C6G U7G C9A A40G G41A then?
0.0007

Entry to check: G5U G8U C9U G34U A35C
0.0387

Input C6G C9A U10C
1.01

What do you get for C6A U7A C9A U10A C44U ?
0.122

// query: G5U G8U C9U A29G A30G
0.0374

Can you check G5C C6A U7C G8C C9A U10A next?
0.741

Moving on to C6A U7A C9A U10A G42A G43A
2.97

Also, G5A C6G G8C C9A please.
0.0264

Can you check G5C C6U G8C C9U U10C G11A G12A next?
0.685

Cool, now U7G C9A
1.94

Also, G5C C6A U7C G8A U10A A39G A40G please.
0.0106

Now the variant C16U U17G
0.211

Next entry: G5C C6U G8C C9U U10C G11U
1

Proceed to A39U A40C
0.276

And C6A U7C C9A U10C G28C A29C ?
2.62

Now consider G5C C6U G8C C9U U10C U17A and answer again.
1.95

And the next one, U17G C18U ?
1.5

Would you kindly repeat that for G5C C6A U7A G8C C9U U10C ?
2.04

// query: G5C C6A U7C G8A U10A U17C C18A
0.063

Field entry: G5C C6A U7C G8A U10A G41C G42A
0.141

One more variant: G5C C6A U7C G8A U10A C19A
0.0348

Could you do the same for U4C G5A C6A U7C C9A U10C , please?
4.23

What would you report for G5C C6U G8C C9U U10C A37U ?
1.73

Entry G5C C6U G8C C9U U10C U17G please
1.65

Cool, now C6A U7A C9A U10A A14G G15A
0.841

# repeat for G5C U7C C9A U10C
0.262

Check G5C C6G U7C U10C C22A A23U too.
2.83

And for C6A U7A C9A U10A G13A A14C ?
2.82

Please give the result for G5A C6G U7G C9A C24U A25U too.
0.000784

Next variant up: U3C C6A U7C C9A U10C
3.44

Subsequent entry: "A25C"
1.1

Then G5U G8U C9U G43A C44U ?
0.177

What do we get for C6A U7C C9A U10C G43A C44A ?
4.49

Same question, C6A U7A C9U this time
0.615

Consider next the variant C6A U7A G8C C9U U10A in the same way.
0.0222

Next: G5C C6U G8C C9U U10C U32C G33C
2.66

Next: "G11U"
2.22

Queued: G5A C6G U7G C9A A25G G26A
0.0192

Same read-out for G11C G12A ?
0.472

Further, for G5A C6G U7G C9A A39C A40C ?
0.0091

Cool, now G5C C6A U7C G8A U10A A45C G46U
0.0352

Another variant: C6A U7A G8C C9A U10C
1.95

Moving on to G5C C6G U7C G8A U10C
3.31

Same read-out for G5A C6U U7A G8U C9A A14G G15C ?
0.0123

How about this variant: G11C G12C
1.58

And for G5A C6G U7G C9A A30U ?
0.00076

Now try U4A G5U C6A U7C G8A U10A .
0.0592

Now try G5C C6A U7C G8A U10A G12A .
0.208

Request: G15C C16A
0.0306

Next record, please: C6A U7C C9A U10C G41A G42A
2.59

Entry G5C C6U G8C C9U U10C C18G C19U please
0.674

Similarly, G5C C6G U7C U10C C44A A45C ?
4.3

Let us now turn to C6A U7A C9A U10A G26C U27C
2.32

Quick one: U4C G5U G8U C9U
0.371

# repeat for G5A C6U U7A G8U C9A A39C A40C
0.204

Then what about the variant U7G G8A ?
2.02

Next variant up: C6A U7C C9A U10C
3.63

And what about the variant G5U G8U C9U A45G ?
0.366

# iterate: U4A G5A C6A U7C C9A U10C
2.23

// repeat for G5C C6G U7C U10C G12A and report
2.53

Moving on to G5U G8U C9U A30G A31C
0.00346

Further, for G5C C6G U7C U10C A29G A30U ?
1.79

Param item: G5U G8U C9U G38A A39U
0.00274

Lookup G5C C6A U7C G8A U10A G43A C44U
0.16

Please answer likewise for G5A U7C G8A U10C A23C
1.89

And for G5U U7C G8C C9U ?
0.364

Proceed to G5C C6U G8C C9U U10C C22A A23U
1.31

And then G5A C6U U7A G8U C9A A20G G21C , what is it?
0.11

Let us now turn to U3A U4G C6A U7C C9A U10C
1.54

Param item: C6A U7A C9A U10A G13C A14U
1.56

Can you handle G5U G8U C9U A47C next?
0.283

Query "U27C" next
0.36

Continue with "G15U"
0.0812

Please give the result for G5U G8U C9U U27A too.
0.208

Can you handle G5C C6A U7C G8A U10A G43U C44U next?
0.0172

Okay, and G5U G8U C9U A47G G48U ?
0.00268

Similarly, G5A C6G U7G C9A C24U A25C ?
0.0183

Input A35C C36U
0.00835

Okay, and G5C C6A U7C G8A U10A A47G G48C ?
0.0266

Repeat with G5U G8U C9U A30G
0.109
